# procedureSummary: Volume of distribution at steady state in rat by cassette dosing
# Assay type: ADME, organism-based
# studyConditions: in vivo, read-out: Vdss
# binarize Vd: threshold 0.6 L/kg inclusive, high side class 1, low side class 0

Reported Vd reaches at least 0.6 L/kg for O=C(O)c1ccc(-c2c[nH]c3ncc(-c4ccccc4)cc23)cc1C1CCCC1 ?
class 1

Next up: CC(C)(C(=O)O)c1ccc(-c2c[nH]c3ncc(-c4cccc(C#N)c4)cc23)cc1
class 1

Next up: CC(C)Cc1cc(-c2c[nH]c3ncc(-c4ccccc4)cc23)ccc1C(=O)O
class 1

Next up: CCc1cc(-c2c[nH]c3ncc(-c4ccccc4)cc23)ccc1C(=O)O
class 0

Next up: CC(C)(C(=O)O)c1ccc(-c2c[nH]c3ncc(-c4ccc5ccccc5c4)cc23)cc1
class 1

###

# procedureSummary: Volume of distribution at steady state in rat by discrete study
# Type: ADME, organism-based
# studyConditions: in vivo, read-out: Vdss
measuredProperty: Vd (L/kg)
Give just the numeric value; L/kg need not be written.

So what does the record say about Vd for O=C(O)Cc1ccc(-c2c[nH]c3ncc(-c4ccc5ccccc5c4)cc23)cc1 ?
1.3

Next up: O=C(O)c1ccc(-c2c[nH]c3ncc(-c4ccccc4)cc23)cc1
8.8

###

# procedureSummary: AUC (0 to t) in po dosed rat by discrete study
# Format: ADME, organism-based
# studyConditions: plasma
measuredProperty: AUC(0-t) (ng·h/mL)
Give just the numeric value; ng·h/mL need not be written.

So what does the record say about AUC(0-t) for O=C(O)Cc1ccc(-c2c[nH]c3ncc(-c4ccc5ccccc5c4)cc23)cc1 ?
467

Next up: O=C(O)c1ccc(-c2c[nH]c3ncc(-c4ccccc4)cc23)cc1
392

###

# procedureSummary: Terminal half life in iv dosed rat by cassette dosing
# Format: ADME, organism-based
# studyConditions: in vivo, read-out: beta t1/2
# binarize half-life: threshold 4 h inclusive, high side TRUE, low side FALSE

Reported half-life reaches at least 4 h for CC(C)Cc1cc(-c2c[nH]c3ncc(-c4ccccc4)cc23)ccc1C(=O)O ?
FALSE

Next up: CC(C)(C(=O)O)c1ccc(-c2c[nH]c3ncc(-c4ccc5ccccc5c4)cc23)cc1
TRUE

Next up: CCc1cc(-c2c[nH]c3ncc(-c4ccccc4)cc23)ccc1C(=O)O
FALSE

Next up: CC(C)(C(=O)O)c1ccc(-c2c[nH]c3ncc(-c4cccc(C#N)c4)cc23)cc1
TRUE

Next up: O=C(O)c1ccc(-c2c[nH]c3ncc(-c4ccccc4)cc23)cc1C1CCCC1 [GSK-650394]
FALSE

###

For each entry below, report its half-life value.
# procedureSummary: Terminal half life in iv dosed rat by discrete study
# Format: ADME, organism-based
# studyConditions: in vivo, read-out: beta t1/2
Give just the numeric value; h need not be written.

So what does the record say about half-life for O=C(O)Cc1ccc(-c2c[nH]c3ncc(-c4ccc5ccccc5c4)cc23)cc1 ?
4.22

Next up: O=C(O)c1ccc(-c2c[nH]c3ncc(-c4ccccc4)cc23)cc1
9.4

###

For each entry below, report its log10 of AUC(0-t) value.
# procedureSummary: AUC (0 to t) in po dosed rat by cassette dosing
# Format: ADME, organism-based
# studyConditions: plasma
Kindly note that the scale is log10 and the underlying AUC(0-t) is in ng·h/mL.

So what does the record say about log10 of AUC(0-t) for CC(C)(C(=O)O)c1ccc(-c2c[nH]c3ncc(-c4cccc(C#N)c4)cc23)cc1 ?
3.28

Next up: CCc1cc(-c2c[nH]c3ncc(-c4ccccc4)cc23)ccc1C(=O)O
3.18

Next up: CC(C)Cc1cc(-c2c[nH]c3ncc(-c4ccccc4)cc23)ccc1C(=O)O
2.57

Next up: O=C(O)c1ccc(-c2c[nH]c3ncc(-c4ccccc4)cc23)cc1C1CCCC1
2.50

Next up: CC(C)(C(=O)O)c1ccc(-c2c[nH]c3ncc(-c4ccc5ccccc5c4)cc23)cc1
3.62
